Catalogue of molecules with associated T/C
Test system: C3AKF1 mice, osteogenic sarcoma HE10734 s.c., tumor weight T/C
Assay info: NCI In Vivo Anticancer Drug Screen. Data for tumor model Osteogenic Sarcoma HE 10734 (subcutaneous) in C3AKF1 (CHKRF1) mice
Reported conditions: endpoint: mean tumor weight; dose: 6.0 mg/kg/injection; schedule: Q01DX010 (ip); vehicle: saline; higher = larger tumour
Inconclusive results are not listed.

Illustrative cases are given below, each with its answer.
Molecule	Value measured
CCCCn1cnc2c(=S)nc(N)[nH]c21	51 % of control
[I][Hg][CH2]C1COCC([CH2][Hg][I])O1.[I][Hg][CH2]C1COCC([CH2][Hg][I])O1 (centres undefined)	83 % of control
CCCNC(=NC)c1ccc(NC(=O)c2ccc(C(=O)Nc3ccc(C(=NC)NCCC)cc3)cc2)cc1	46 % of control

Could you now consider this next molecule?
IN: Supply measured T/C of "CCC[CH2][Sn]([CH2]CCC)([CH2]CCC)[O]C(=O)CC[S][Sn]([CH2]CCC)([CH2]CCC)[CH2]CCC" in your reply.
OUT: 72 % of control

====

Catalogue of molecules with associated T/C
Tested on: C3AKF1 mice, osteogenic sarcoma HE10734 s.c., tumor weight T/C
Assay info: NCI In Vivo Anticancer Drug Screen. Data for tumor model Osteogenic Sarcoma HE 10734 (subcutaneous) in C3AKF1 (CHKRF1) mice
Reported conditions: endpoint: mean tumor weight; dose: 500.0 mg/kg/injection; schedule: Q01DX010 (ip); vehicle: saline; higher = larger tumour
Description: The antitumor activity of compounds was measured in mice bearing transplantable tumors. Survival or tumor size were measured and the results are expressed as the measurement made in the treated group (T) divided by the measurement made in the vehicle treated control group (C). The tumor model used in this assay is Osteogenic Sarcoma HE 10734 (subcutaneous) in C3AKF1 (CHKRF1) mice
Results filed as inconclusive are left out.

Illustrative cases are given below, each with its answer.
Molecule	T/C
O=C(NO)c1ccncc1	102 % of control
Fc1ccc(CSc2ncnc3c2ncn3C2CCCCO2)cc1 (stereo unspecified)	28 % of control
CCOC(=O)NC	59 % of control

IN: Supply measured T/C of CS(=O)(=O)OCC(O)C(O)COS(C)(=O)=O (stereo unspecified) in your reply.
OUT: 81 % of control

IN: Supply measured T/C of "Nc1nc(SCc2ccccc2)c2ncn(C3CCCC3)c2n1" in your reply.
OUT: 83 % of control

IN: Supply measured T/C of "Nc1nc(SCc2ccc([N+](=O)[O-])cc2)c2[nH]cnc2n1" in your reply.
OUT: 58 % of control

====

Test system: C3AKF1 mice, osteogenic sarcoma HE10734 s.c., tumor weight T/C
Assay info: NCI In Vivo Anticancer Drug Screen. Data for tumor model Osteogenic Sarcoma HE 10734 (subcutaneous) in C3AKF1 (CHKRF1) mice
Reported conditions: endpoint: mean tumor weight; dose: 20.0 mg/kg/injection; schedule: Q01DX010 (ip); vehicle: saline; higher = larger tumour
Results filed as inconclusive are left out.
Catalogue of compounds with associated T/C

Illustrative cases are given below, each with its answer.
Compound	Value measured
CSc1ncnc2c1ncn2C1CCCO1 (centres undefined)	76 % of control
CN(C)[C@@H]1C(=O)C(C(=O)NCN(CCCl)CCCl)=C(O)[C@@]2(O)C(=O)C3=C(O)c4c(O)cccc4[C@@](C)(O)[C@H]3C[C@@H]12	94 % of control
O=C1N(Cl)C(=O)C(c2ccc(Cl)cc2)(c2ccc(Cl)cc2)N1Cl	58 % of control

IN: Supply measured T/C of "CN(C)Nc1ncnc2nc[nH]c12" in your reply.
OUT: 84 % of control
